Species: Rattus norvegicus
Assay: Open TG-GATES - Regimen: Daily Repeat
Type: toxicity, organism-based, Sprague-Dawley
Set-up: regimen Daily Repeat, gender Male, age 6 weeks
Conditions: in vivo, po, 300 mg/kg, […], tissue Blood, route gavage, dose level Middle, time 7 day
So I've got a bunch of compounds here, and I need their WBC values.

Please review the entries below; each comes with its answer.
INSERT INTO assay_data (compound, measurementname, readoutvalue) VALUES
  ('CC(S)C(=O)NCC(=O)O (centres undefined)', 'WBC', '101.8 x10_2/uL'),
  ('CC(=O)[C@@]1(O)CC[C@H]2[C@@H]3C=C(Cl)C4=CC(=O)CC[C@]4(C)[C@H]3CC[C@@]21C', 'WBC', '119.7 x10_2/uL');

Hey, quick one: what's WBC for each of these?
1. CCCCNC(=O)NS(=O)(=O)c1ccc(C)cc1 [TOLBUTAMIDE]
2. O=C(O)c1ccccc1Nc1ccccc1

// result
114.8 x10_2/uL
89.7 x10_2/uL
